Measured growth of individual entries
# Test system: K-562 leukemia
# run_description: NCI-60 one-dose screen, 48 h (100 = growth as untreated, 0 = no growth, -100 = all killed)
# condition_details: 10 µM
Compounds without any hit were thinned out: in the full panel of roughly 83,000, 20% have a hit. Calls of active or inactive are those of the source. The calls were made as follows: active = growth percent below 10; inactive = the rest.

>  <molecule>
O=C(Nc1cccc(-n2cc(-c3ccncc3)c(-c3ccc(O)c(Cl)c3)n2)c1)c1ccc(N2CCOCC2)c(C(F)(F)F)c1

>  <growth>
3.17% (active)

$$$$
>  <molecule>
COc1ccc(-c2nc(-c3nc4cc(Cl)c(Cl)cc4[nH]3)c3ccccn23)cc1

>  <growth>
59.8% (inactive)

$$$$
>  <molecule>
COc1ccc(-c2nc(-c3nc4cc(Cl)c(F)cc4[nH]3)c3ccccn23)cc1

>  <growth>
40.3% (inactive)

$$$$
>  <molecule>
COc1cc(-c2cc(/C=C3\C(=O)Nc4cc(Cl)ccc43)[nH]n2)cc(OC)c1OC

>  <growth>
23.4% (inactive)

$$$$
>  <molecule>
COc1cc2cc3c(nc2cc1OC)CCN3Cc1ccc(NC(=O)Nc2cc(C(F)(F)F)cc(C(F)(F)F)c2)cc1

>  <growth>
49.8% (inactive)

$$$$
>  <molecule>
CCCCCCCCCCCCCCCC(=O)OC1[C@@H](OC(=O)CCCCCCCCCCCCCCC)[C@@H](C(=O)N[C@@H](CCCCN)C(=O)OC)O[C@H]1n1cnc2c(=O)[nH]c(NC(=O)C(C)C)nc21 (some centres not stated)

>  <growth>
82.9% (inactive)

$$$$
>  <molecule>
S=c1[nH]ccn1-c1c(Cl)cccc1Cl

>  <growth>
103% (inactive)

$$$$

* * *

Measured growth of individual entries
# Tested on: MDA-MB-231 breast
# run_description: NCI-60 one-dose screen, 48 h (100 = growth as untreated, 0 = no growth, -100 = all killed)
# condition_details: 10 µM
About 83,000 compounds went through this panel and 20% of them were active in at least one assay; those are over-represented in the sample as a whole.
quantity: growth (%)

>  <molecule>
O=C(O)C(SC(C(=O)O)c1ccccc1)c1ccccc1 (stereo unspecified)

>  <quantity>
growth

>  <measure_unit>
%

>  <obs_value>
115

$$$$
>  <molecule>
CCCCN(CCCC)CCCCCCCCC(O)c1cc2ccccc2c2ccccc12 (stereo unspecified)

>  <quantity>
growth

>  <measure_unit>
%

>  <obs_value>
56.2

$$$$
>  <molecule>
C[C@@H]1C=C2C(=O)O[C@@H]3CC[C@H](C1)[C@]23O

>  <quantity>
growth

>  <measure_unit>
%

>  <obs_value>
89

$$$$
>  <molecule>
Cc1[nH]nc2c1C(c1cnn(C)c1)C(C#N)=C(N)O2 (stereo unspecified)

>  <quantity>
growth

>  <measure_unit>
%

>  <obs_value>
117

$$$$
>  <molecule>
COc1cc(Cl)cc(-c2nn(-c3cccc(NC(=O)c4ccc(N5CCOCC5)c(C(F)(F)F)c4)c3)cc2-c2ccncc2)c1

>  <quantity>
growth

>  <measure_unit>
%

>  <obs_value>
11.4

$$$$
>  <molecule>
Cc1ncc(-c2ccoc2)c(NC2CCCCCC2)n1

>  <quantity>
growth

>  <measure_unit>
%

>  <obs_value>
108

$$$$
>  <molecule>
COc1ccc(-c2csc(NC(=O)CSc3nc(C)c(-c4ccccc4)n3Nc3ccccc3)n2)cc1

>  <quantity>
growth

>  <measure_unit>
%

>  <obs_value>
65.8

$$$$
>  <molecule>
CC(=O)CSC(C)=O

>  <quantity>
growth

>  <measure_unit>
%

>  <obs_value>
99.7

$$$$
>  <molecule>
O=C1c2ccc3c4c(ccc(c24)C(=O)N1CCNCc1ccccc1)C(=O)N(CCNCc1ccccc1)C3=O

>  <quantity>
growth

>  <measure_unit>
%

>  <obs_value>
39.9

$$$$
>  <molecule>
N=C1c2nc3n(c2C(=O)c2nc4n(c21)CCCC4)CCCC3

>  <quantity>
growth

>  <measure_unit>
%

>  <obs_value>
82.6

$$$$
>  <molecule>
Cn1c([N+](=O)[O-])cnc1/C=C1\Oc2ccccc2C1=O

>  <quantity>
growth

>  <measure_unit>
%

>  <obs_value>
-31.7

$$$$
>  <molecule>
COc1cc(/C=C2\Oc3cc(OCC(=O)c4ccccc4)ccc3C2=O)cc(OC)c1OC

>  <quantity>
growth

>  <measure_unit>
%

>  <obs_value>
95.6

$$$$
>  <molecule>
Cc1ccc(NC(=O)Nc2nc3ccccc3s2)cc1NC(=O)Nc1nc2ccccc2s1

>  <quantity>
growth

>  <measure_unit>
%

>  <obs_value>
82.4

$$$$
>  <molecule>
Clc1ccc(Nc2ccnc(NCCCNc3ccnc4cc(Cl)ccc34)n2)cc1

>  <quantity>
growth

>  <measure_unit>
%

>  <obs_value>
-86

$$$$
>  <molecule>
COc1ccc2c(c1)C(=O)c1c-2c(=O)n(CCCN(C)C)c2cc(OC)c(OC)cc12

>  <quantity>
growth

>  <measure_unit>
%

>  <obs_value>
103

$$$$
>  <molecule>
CCN(CC)CCOc1nc2cc(OC)c(OC)cc2c2c1-c1ccc(OC)cc1C2=O

>  <quantity>
growth

>  <measure_unit>
%

>  <obs_value>
92.4

$$$$
>  <molecule>
NC(=O)CC1(c2ccccc2)CCCCC1

>  <quantity>
growth

>  <measure_unit>
%

>  <obs_value>
105

$$$$
>  <molecule>
CC(C)(C)NC/C(=C\c1ccccc1)C(=O)c1ccccc1

>  <quantity>
growth

>  <measure_unit>
%

>  <obs_value>
-23

$$$$
>  <molecule>
O=[N+]([O-])c1cccc(N=Cc2ccc3c(c2)OCO3)c1

>  <quantity>
growth

>  <measure_unit>
%

>  <obs_value>
130

$$$$
>  <molecule>
CSc1nn(-c2ccccc2)c2ncnc(Oc3ccccc3)c12

>  <quantity>
growth

>  <measure_unit>
%

>  <obs_value>
98.3

$$$$
>  <molecule>
COc1ccc(-c2nc(-c3nc4ccc(Cl)cc4[nH]3)c3ccccn23)cc1

>  <quantity>
growth

>  <measure_unit>
%

>  <obs_value>
11.8

$$$$
>  <molecule>
O=C(Nc1ccc(CN2CCc3nc4cc(O)c(O)cc4cc32)cc1)c1ccc(Cl)c(Cl)c1

>  <quantity>
growth

>  <measure_unit>
%

>  <obs_value>
103

$$$$
>  <molecule>
COc1cccc(NC(=O)c2sc3nc4c(cc3c2N)C(O)CCC4)c1 (stereo unspecified)

>  <quantity>
growth

>  <measure_unit>
%

>  <obs_value>
23.9

$$$$
>  <molecule>
COc1ccc(-c2nc3ccccn3c2-c2nnc(-c3cc(OC)c(OC)c(OC)c3)o2)cc1

>  <quantity>
growth

>  <measure_unit>
%

>  <obs_value>
46.9

$$$$
>  <molecule>
COc1ccc(-c2nn(-c3cccc(NC(=O)c4ccc(Cl)c(Cl)c4)c3)cc2-c2ccncc2)cc1Cl

>  <quantity>
growth

>  <measure_unit>
%

>  <obs_value>
78

$$$$
>  <molecule>
O=C(CC(NC(=O)OCc1ccccc1)C(=O)OCc1ccccc1)OCc1ccccc1 (stereo unspecified)

>  <quantity>
growth

>  <measure_unit>
%

>  <obs_value>
123

$$$$
>  <molecule>
COc1ccc2c(c1)N(CCO)C1=C(C(=O)OC1)C2c1cc(OC)c(OC)c(OC)c1 (stereo unspecified)

>  <quantity>
growth

>  <measure_unit>
%

>  <obs_value>
-24.4

$$$$
>  <molecule>
CCCCCCCCCCCCCCCCCCOCC(COCCOCC[N+]1(CCCCCC(=O)[O-])CCCC1)Oc1ncccn1 (stereo unspecified)

>  <quantity>
growth

>  <measure_unit>
%

>  <obs_value>
51.9

$$$$
>  <molecule>
COc1cc2c(cc1OCCCN1CCN(c3ncnc4ccccc34)CC1)N=CC1CCCN1C2=O (stereo unspecified)

>  <quantity>
growth

>  <measure_unit>
%

>  <obs_value>
-34.4

$$$$
>  <molecule>
CC1CN(Cc2ccccc2)C(=O)NC1=O (stereo unspecified)

>  <quantity>
growth

>  <measure_unit>
%

>  <obs_value>
107

$$$$
>  <molecule>
COc1ccc(OC)c(/C=C/c2nnc(Nc3ccc(Cl)cc3)o2)c1

>  <quantity>
growth

>  <measure_unit>
%

>  <obs_value>
70.9

$$$$
